Tested on: SK-MEL-5 melanoma
Assay: NCI-60 one-dose screen, 48 h (100 = growth as untreated, 0 = no growth, -100 = all killed)
Details: 10 µM unless noted
The panel holds about 83,000 compounds, 20% with a hit somewhere; the sample as a whole holds those more often.
EXPERIMENTAL ENDPOINT: growth (%)
Respond with the bare value in %.

Reference set (5 entries):
{"COMPOUND": "C=CCSc1n[nH]c(-c2cccs2)n1", "ASSAY TARGET": "SK-MEL-5 melanoma", "UNIT TAG": "%", "growth": 104}
{"COMPOUND": "Cc1ccc(-c2csc(NC(=O)CCCCl)n2)cc1", "ASSAY TARGET": "SK-MEL-5 melanoma", "UNIT TAG": "%", "growth": 93.9}
{"COMPOUND": "Cc1ccc(S(=O)(=O)/C(=C\\c2ccc(Cl)cc2)C(=O)c2ccccc2)cc1", "ASSAY TARGET": "SK-MEL-5 melanoma", "UNIT TAG": "%", "growth": 103}
{"COMPOUND": "CCC(=O)OC1=CN2C(=NC(c3ccc(N)cc3)=CC2c2cc(OC)c(OC)c(OC)c2)S1 (stereo unspecified)", "ASSAY TARGET": "SK-MEL-5 melanoma", "UNIT TAG": "%", "growth": 66.9}
{"COMPOUND": "CCCCCCCCN(CCCCCCCC)CCCCCCNc1cc(OC)cc2cccnc12", "ASSAY TARGET": "SK-MEL-5 melanoma", "UNIT TAG": "%", "growth": 103}

Next item in the queue.
// recorded growth for `CNC(=S)NNC(=O)C1CC1` : 105
